The origin of these recorded values is ChEMBL document CHEMBL2046282.

# targetUnderTest: Vascular endothelial growth factor receptor 2 (Homo sapiens)
# Sequence (P35968 whole entry): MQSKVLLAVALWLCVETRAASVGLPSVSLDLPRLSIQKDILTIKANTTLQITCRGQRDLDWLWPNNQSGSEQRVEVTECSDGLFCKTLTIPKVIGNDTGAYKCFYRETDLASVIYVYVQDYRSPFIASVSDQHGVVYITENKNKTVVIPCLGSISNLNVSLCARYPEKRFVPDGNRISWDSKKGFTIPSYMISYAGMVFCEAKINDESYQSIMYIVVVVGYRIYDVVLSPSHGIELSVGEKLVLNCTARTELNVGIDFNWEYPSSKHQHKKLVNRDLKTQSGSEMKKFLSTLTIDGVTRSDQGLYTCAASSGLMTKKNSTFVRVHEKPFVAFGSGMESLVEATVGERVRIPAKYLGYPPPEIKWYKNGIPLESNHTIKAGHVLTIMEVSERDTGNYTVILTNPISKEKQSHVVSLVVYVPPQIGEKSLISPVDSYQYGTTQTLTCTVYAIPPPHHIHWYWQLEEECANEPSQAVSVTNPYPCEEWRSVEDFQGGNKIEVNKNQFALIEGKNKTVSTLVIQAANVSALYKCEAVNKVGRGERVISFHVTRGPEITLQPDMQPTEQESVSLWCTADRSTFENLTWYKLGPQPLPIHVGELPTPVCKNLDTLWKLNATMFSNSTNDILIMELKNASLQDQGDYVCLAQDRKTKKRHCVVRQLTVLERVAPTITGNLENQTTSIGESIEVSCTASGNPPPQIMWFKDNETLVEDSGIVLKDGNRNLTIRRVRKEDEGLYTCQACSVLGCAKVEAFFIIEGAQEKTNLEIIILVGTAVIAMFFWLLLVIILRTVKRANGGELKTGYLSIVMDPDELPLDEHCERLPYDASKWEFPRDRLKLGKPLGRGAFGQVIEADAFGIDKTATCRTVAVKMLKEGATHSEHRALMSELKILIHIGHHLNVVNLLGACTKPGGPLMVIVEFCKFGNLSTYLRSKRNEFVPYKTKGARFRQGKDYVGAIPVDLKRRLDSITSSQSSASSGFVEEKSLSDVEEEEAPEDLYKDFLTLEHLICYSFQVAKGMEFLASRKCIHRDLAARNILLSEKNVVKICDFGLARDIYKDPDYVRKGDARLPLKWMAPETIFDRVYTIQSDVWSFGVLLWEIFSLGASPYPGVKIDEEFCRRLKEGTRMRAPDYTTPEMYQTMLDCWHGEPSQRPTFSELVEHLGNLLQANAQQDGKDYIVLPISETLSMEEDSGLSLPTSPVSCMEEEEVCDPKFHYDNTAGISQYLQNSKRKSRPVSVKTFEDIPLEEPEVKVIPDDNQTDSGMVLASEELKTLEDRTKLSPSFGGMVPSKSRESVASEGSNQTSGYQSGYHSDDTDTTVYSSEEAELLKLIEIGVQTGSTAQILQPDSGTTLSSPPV
pKi: −log10 of the molar value.
propertyLabel: pKi

Documented pKi of CC(C)C[C@H]1CN(c2ccc(C(F)(F)F)c(C(=O)c3cccnc3N)n2)CCN1 : < 5.40

----------
# protocolNotes: Oral bioavailability in mouse at 10 mg/kg
# Assay type: ADME, organism-based
# measurementSetup: in vivo
propertyLabel: bioavailability (%)
Give bare numbers, in %.

Documented bioavailability of CC(C)C[C@H]1CN(c2ccc(C(F)(F)F)c(C(=O)c3cccnc3N)n2)CCN1 : 45

----------
Protein target, amino acids: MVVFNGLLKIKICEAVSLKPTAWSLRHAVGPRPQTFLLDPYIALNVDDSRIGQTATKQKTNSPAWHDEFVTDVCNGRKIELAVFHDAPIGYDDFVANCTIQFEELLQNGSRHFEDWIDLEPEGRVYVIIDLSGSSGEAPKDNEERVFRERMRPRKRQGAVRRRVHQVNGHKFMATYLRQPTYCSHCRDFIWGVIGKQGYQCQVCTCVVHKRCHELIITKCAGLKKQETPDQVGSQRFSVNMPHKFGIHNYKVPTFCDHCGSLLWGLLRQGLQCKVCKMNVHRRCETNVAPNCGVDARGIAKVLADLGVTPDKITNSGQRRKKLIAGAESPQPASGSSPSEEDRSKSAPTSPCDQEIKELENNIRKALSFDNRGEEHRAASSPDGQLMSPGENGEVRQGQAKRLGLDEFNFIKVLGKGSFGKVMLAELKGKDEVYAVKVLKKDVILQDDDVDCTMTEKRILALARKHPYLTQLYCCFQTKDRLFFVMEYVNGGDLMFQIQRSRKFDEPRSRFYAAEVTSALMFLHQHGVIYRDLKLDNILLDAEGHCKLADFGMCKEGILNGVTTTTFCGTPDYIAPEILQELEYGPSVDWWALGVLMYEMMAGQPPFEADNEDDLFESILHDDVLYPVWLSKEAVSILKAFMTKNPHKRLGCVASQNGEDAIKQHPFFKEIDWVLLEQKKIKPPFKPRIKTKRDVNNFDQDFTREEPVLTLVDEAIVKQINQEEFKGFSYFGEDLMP
propertyLabel: Ki
In your response, the unit should come after the numeric value.

Documented Ki of CC(C)C[C@H]1CN(c2ccc(C(F)(F)F)c(C(=O)c3cccnc3N)n2)CCN1 : 17 nM
